Tested on: mouse SGLT2 mRNA
Assay: Mouse SGLT2 mRNA levels in kidney, 1-10-1 MOE gapmers, Balb/c mice (Example 14, Table 65)
Format: in vivo
Details: 150 nmol/kg i.p. twice per week for two weeks
Strand notation (5' to 3'): a small letter for the sugar, then the base; units joined by * are phosphorothioate-linked, units joined directly phosphodiester-linked; [ ] holds rarer units or linkages, { } end groups; capitals alone tell only the bases. e = 2'-O-(2-methoxyethyl) (MOE); [5mC] = 5-methylcytosine; d = 2'-deoxy (DNA)
measurementLabel: % change in SGLT2 expression relative to saline

INSERT INTO assay_data (substance, result) VALUES
  ('ISIS 379692: SGLT2; 1-10-1 MOE gapmer (antisense eT*dG*dT*dT*d[5mC]*d[5mC]*dA*dG*d[5mC]*d[5mC]*d[5mC]*eA)', '−70%'),
  ('ISIS 379702: targeted to SGLT2 (antisense eG*d[5mC]*dA*d[5mC]*dA*d[5mC]*dA*dG*d[5mC]*dT*dG*e[5mC])', '−72.5%'),
  ('ISIS 379699: SGLT2; GGCATGAGCTTC 1-10-1 MOE (antisense eG*dG*d[5mC]*dA*dT*dG*dA*dG*d[5mC]*dT*dT*e[5mC])', '−62.5%'),
  ('ISIS 370717: SGLT2; TAGCCACCAACT 1-10-1 MOE gapmer, phosphorothioate (sugars from the 5'' end e1 d10 e1, all phosphorothioate, methylation of C not given here)', '−55%');
